I'd be grateful if you could share measured TGI for these entries.
system: HOP-62 NSCLC; experiment: NCI tumour cell line growth inhibition, 48 h

Request: Look up TGI for this molecule: N#Cc1cccc(Nc2ncc(-c3ccccc3)o2)c1
Response: > 17.8 µM

Request: Follow-up item: COc1ccc(/C=C/c2cc(OC)c(OCc3ccccc3)c(OC)c2)cc1
Response: > 100 µM

Request: Subsequent entry: CN1CCCC1c1cccnc1.O=C(O)c1ccccc1O.O=C([O-])c1ccccc1[OH2+].O=C([O-])c1ccccc1[OH2+].[Mn+2] (stereo unspecified)
Response: > 100 µM

Request: Field entry: Nc1nc2ncn(CC(O)CO)c2c(=O)[nH]1 (stereo unspecified)
Response: > 100 µM

Request: Moving on to Cc1ccc(C2=Nc3ccccc3SC(c3cccc4c3OCO4)C2)cc1 (stereo unspecified)
Response: > 100 µM

Request: Follow-up entry: NC(CCCCNCc1ccccc1O)C(=O)O (stereo unspecified)
Response: > 100 µM

====

system: HL-60(TB) leukemia; experiment: NCI tumour cell line growth inhibition, 48 h
Give TGI for every item shown.

Request: TGI for O=[N+]([O-])/C=C/c1cn(CCCCCCCCCCCCn2cc(/C=C/[N+](=O)[O-])c3ccccc32)c2ccccc12 ?
Response: > 100 µM

Request: Same read-out for COc1cc(C(=O)C2CC3(CCC2(O)c2cc(OC)c(OC)c(OC)c2)CC(=O)Nc2ccccc2C3=O)cc(OC)c1OC (centres undefined) ?
Response: 78.8 µM

Request: CNC(=O)CCCNC(=O)CCCC(=O)OC ?
Response: > 100 µM

Request: Would you kindly repeat that for NC(=O)c1sc2nc3ccccc3n2c1N ?
Response: > 100 µM

====

system: ACHN renal; assay: NCI tumour cell line growth inhibition, 48 h
endpoint_name: TGI

Request: Which measured TGI value corresponds to COc1cc(/C=C/C2=C(C#N)C(=O)OC2(C)C)ccc1O ?
Response: > 100 µM

Request: How about C=CCN(CC=C)C(=O)[C@H](CC)[C@@H]1CC[C@@H](C)[C@@H]([C@H](C)[C@@H](O)[C@@H](C)C(=O)[C@H](CC)C2O[C@]3(C=C[C@@H](O)[C@]4(CC[C@@](C)([C@H]5CC[C@](O)(CC)[C@H](C)O5)O4)O3)[C@H](C)C[C@@H]2C)O1 (some centres undefined) ?
Response: 11 µM

Request: Follow-up item: N#CCNC(=O)c1ccc(-c2ccnc(Nc3ccc(N4CCOCC4)cc3)n2)cc1
Response: > 37.1 µM

Request: Would you mind doing CCOC(=O)/C=C\C(C#N)(C#N)N=Cc1ccsc1 as well?
Response: 9.26 µM

Request: Follow-up entry: COc1cc(/C=C/C(=O)O[C@H]2[C@H](O[C@@H]3O[C@@H](C)[C@H](O)[C@@H](O)[C@H]3O)[C@@H](O)[C@H](OCCc3ccc(O)c(O)c3)O[C@@H]2COC2OCC(O)(CO)C2O)ccc1O (some centres undefined)
Response: > 100 µM

Request: Would you kindly repeat that for O=[N+]([O-])C(=C/c1cccc2ccccc12)/C(=C\c1cccc2ccccc12)[N+](=O)[O-] ?
Response: 4.21 µM

Request: Likewise for C/C(=N\NC(=O)C(N)=O)c1c(O)cc(C)oc1=O ?
Response: > 100 µM

Request: Same question, COC1=C(OC)[C@]2(OC)c3c(O)c(OC)c4c(c3O[C@@]23O[C@@H](c2ccccc2)CC=C3C1=O)[C@@H](OC)C[C@H](c1ccccc1)O4 this time
Response: 1.81 µM

Request: Param item: C[C@H](NC(=O)CNC(=O)CCCCCC(=O)NCC(=O)N[C@@H](C)C(=O)OCc1ccccc1)C(=O)OCc1ccccc1
Response: > 100 µM

Request: Cool, now N#Cc1cc2c(cc1Cl)Sc1nnc(Nc3cccc4ccccc34)n1S2(=O)=O
Response: 19.2 µM

Request: Please do the same for C[C@H]1C(=O)c2c(cc(O)c(C3OC(CO)C(O)C(O)C3O)c2O)OC1c1ccc(O)c(O)c1 (some centres undefined) as well.
Response: > 100 µM

Request: Thanks! And CCOC(=O)C(CCCNC(=O)OC(C)(C)C)N(Cc1ccc(OC)cc1OC)C(=O)CC(=O)CP(=O)(OCC)OCC (centres undefined) ?
Response: > 100 µM

Request: Can you check O=c1[nH]c(=S)[nH]c(-c2ccccc2)c1Cc1c(O)ccc2ccccc12 next?
Response: > 100 µM

Request: And NCc1ccc(-c2nc(-c3ccc(Cl)c(O)c3)c(-c3ccncc3)[nH]2)cc1 ?
Response: > 25 µM
